- Assayed target: STK6A (Homo sapiens)
- Construct: TEV-cleavable (cleaved yes); made in house; host or cells: E. coli
- Sequence (O14965 1-403): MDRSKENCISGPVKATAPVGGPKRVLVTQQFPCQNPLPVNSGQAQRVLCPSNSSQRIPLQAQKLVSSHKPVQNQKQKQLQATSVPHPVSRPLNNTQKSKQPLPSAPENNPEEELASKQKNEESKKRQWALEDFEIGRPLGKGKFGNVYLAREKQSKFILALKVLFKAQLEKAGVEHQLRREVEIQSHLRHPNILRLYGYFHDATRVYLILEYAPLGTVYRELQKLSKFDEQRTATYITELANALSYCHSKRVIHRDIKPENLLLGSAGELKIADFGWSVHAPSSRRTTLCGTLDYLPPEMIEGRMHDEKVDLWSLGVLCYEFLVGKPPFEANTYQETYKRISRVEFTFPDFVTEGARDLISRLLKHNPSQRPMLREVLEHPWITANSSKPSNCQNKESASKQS
- Assay: DSF thermal shift, kinase panel
- Assay type: binding
- Experimental conditions: 10 μM compound
Cut-off 0.5 °C on ΔTm at 10 µM: below means true (1), at or above means false (0).

Lab note: ΔTm at 10 µM threshold 0.5 °C. Does this compound come in strictly under it? CNC(=O)c1ccccc1Nc1nsnc(Nc2cccc(CS(C)(=O)=O)c2)c1=O true (1)

Lab note: ΔTm at 10 µM threshold 0.5 °C. Does this compound come in strictly under it? Cc1ccc(Nc2nsnc(Nc3cccc(C(N)=O)c3)c2=O)cc1O true (1)

Lab note: ΔTm at 10 µM threshold 0.5 °C. Does this compound come in strictly under it? Cc1ccc(Nc2nsnc(Nc3ccc4c(c3)CS(=O)(=O)C4)c2=O)cc1O true (1)

Lab note: ΔTm at 10 µM threshold 0.5 °C. Does this compound come in strictly under it? Cc1ccc(Nc2nsnc(Nc3ccc(C(N)=O)cc3)c2=O)cc1O false (0)
